Reported GI50 by item:
test system: MCF-7 breast adenocarcinoma cells; assay: MTT antiproliferative assay, MCF-7; type: cell-based; details: Homo sapiens, MCF7, Table 2, 48 h treatment, ± SD, read-out: cell viability GI50, MCF7
Record the value in µM, omitting the unit from your answer.

Guide cases for GI50, answers given:
// GI50 value for CCOc1ccc(C(C(=O)NO)c2c(-c3ccc4ccccc4c3)[nH]c3ccccc23)cc1 (centres unmarked) [Compound 3aafl] : 8.5

Sample O=C(NO)C(c1ccc(OC(F)(F)F)cc1)c1c(-c2ccc3ccccc3c2)[nH]c2ccccc12 (centres unmarked) [Compound 3aafj] ; GI50 observed: 10.2

GI50 reading for COc1ccc(C(C(=O)NO)c2c(-c3ccc4ccccc4c3)[nH]c3ccccc23)cc1OC (centres unmarked) [Compound 3aaff] : 2.4

Looking up CCN(CC)c1ccc(C(C(=O)NO)c2c(-c3ccc4ccccc4c3)[nH]c3ccccc23)cc1 (centres unmarked) [Compound 3aafo] , I see its GI50 listed as 7.9

Quick note, GI50 for O=C(NO)C(c1ccccc1)c1c(-c2ccc3ccccc3c2)n(Cc2ccccc2)c2ccccc12 (centres unmarked) [Compound 3eafa] landed at 5.5

More entries:
# compound CN(C)c1ccc(C(C(=O)NO)c2c(-c3ccc4ccccc4c3)[nH]c3ccccc23)cc1 (centres unmarked) [Compound 3aafp] ; its GI50 = 1.1

For this compound ( CCC(C)n1c(-c2ccc3ccccc3c2)c(C(C(=O)NO)c2ccccc2)c2ccccc21 (centres unmarked) [Compound 3dafa] ), measured GI50 is 9.3

Per the records, this compound ( Cc1ccc(C(C(=O)NO)c2c(-c3ccc4ccccc4c3)[nH]c3ccccc23)cc1C (centres unmarked) [Compound 3aafk] ) has GI50 equal to 2.5
